# assay-procedure: Plasma pharmacokinetics in male SD rats
# Format: in vivo
# conditions-used: male, SD, rat, plasma, oral, 10 mg/kg

>  <compound>
Nc1ncnc2c1C(=O)N(c1ccc([C@H]3CC[C@H](CC(=O)O)CC3)cc1)CCO2 [PF-04620110, reference compound]

>  <bioavailability [%]>
109

$$$$
>  <compound>
O=C(O)C[C@H]1CC[C@H](c2ccc(-c3ccc(Nc4ccc(C(F)(F)F)nc4)cn3)cc2)CC1 [Pradigastat, reference compound]

>  <bioavailability [%]>
14.9

$$$$
>  <compound>
Cc1cc(N2CCOc3ncnc(N)c3C2=O)cc(C)c1-c1ccc2ccn(CC(F)(F)F)c(=O)c2c1

>  <bioavailability [%]>
56.8

$$$$
